# ASSAY_NOTES: Antioxidant activity assessed as DPPH free radical scavenging activity incubated for 30 mins by ELISA method
# Format: physicochemical
# CONDITION_SET: 0.5 h; read-out: ED50 (the source's name)
Exercise: for every item that follows, state its recorded EC50.
Report the value in µM with no unit label.

Query: // query EC50 value for entry COc1cc(/C=C/C(=O)OC[C@H]2O[C@@H](Oc3ccc(/C=C/C(=O)O[C@@H]4O[C@H](CO)[C@@H](O)[C@H](O)[C@H]4O)cc3O)[C@H](O)[C@@H](O)[C@@H]2O)ccc1O
Result: 87

Query: Here is the next compound: O=C(O)/C=C/c1ccc(O[C@@H]2O[C@H](CO)[C@@H](O)[C@H](O)[C@H]2O)c(O)c1
Result: 175

Query: Here is the next compound: O=C(/C=C/c1ccc(O)c(O)c1)OC[C@H]1O[C@@H](Oc2ccc(/C=C/C(=O)O[C@@H]3O[C@H](CO)[C@@H](O)[C@H](O)[C@H]3O)cc2)[C@H](O)[C@@H](O)[C@@H]1O
Result: 47

Query: Here is the next compound: O=C(/C=C/c1ccc(O[C@@H]2O[C@H](COC(=O)/C=C/c3ccc(O)c(O)c3)[C@@H](O)[C@H](O)[C@H]2O)c(O)c1)OC[C@H]1O[C@@H](Oc2cc(/C=C/c3ccc(O)c(O)c3)oc(=O)c2)[C@H](O)[C@@H](O)[C@@H]1O
Result: 17

Query: Here is the next compound: O=C(/C=C/c1ccc(O)c(O)c1)OC[C@H]1O[C@@H](Oc2ccc(/C=C/C(=O)O[C@@H]3O[C@H](CO)[C@@H](O)[C@H](O)[C@H]3O)cc2O)[C@H](O)[C@@H](O)[C@@H]1O
Result: 13.3

Query: Here is the next compound: O=C(/C=C/c1ccc(O)c(O)c1)OC[C@H]1O[C@@H](Oc2cc(/C=C/c3ccc(O)c(O)c3)oc(=O)c2)[C@H](O)[C@@H](O)[C@@H]1O
Result: 13

====

# ASSAY_NOTES: Antioxidant activity assessed as DPPH free radical scavenging activity at 100 ug/ml incubated for 30 mins by ELISA method
# Format: physicochemical
# CONDITION_SET: 0.5 h
Exercise: for every item that follows, state its recorded Activity.
Report the value in % with no unit label.

Query: // query Activity value for entry O=C(/C=C/c1ccc(O)cc1)OC[C@H]1O[C@@H](Oc2ccc(/C=C/C(=O)O[C@@H]3O[C@H](CO)[C@@H](O)[C@H](O)[C@H]3O)cc2O)[C@H](O)[C@@H](O)[C@@H]1O
Result: 7.8

Query: Here is the next compound: O=C(/C=C/c1ccc(O)c(O)c1)OC[C@H]1O[C@@H](Oc2cc(/C=C/C(=O)O[C@@H]3O[C@H](CO)[C@@H](O)[C@H](O)[C@H]3O)ccc2O)[C@H](O)[C@@H](O)[C@@H]1O
Result: 99.4

Query: Here is the next compound: COc1cc(/C=C/C(=O)OC[C@H]2O[C@@H](Oc3ccc(/C=C/C(=O)O[C@@H]4O[C@H](CO)[C@@H](O)[C@H](O)[C@H]4O)cc3O)[C@H](O)[C@@H](O)[C@@H]2O)ccc1O
Result: 74.8

====

# ASSAY_NOTES: Antioxidant activity assessed as DPPH free radical scavenging activity at 100 ug/ml incubated for 30 mins by ELISA method
# Format: physicochemical
# CONDITION_SET: 0.5 h
Exercise: for every item that follows, state its recorded Activity.
Report the value in % with no unit label.

Query: // query Activity value for entry O=C(/C=C/c1ccc(O)cc1)OC[C@H]1OC(O)[C@H](O)[C@@H](O)[C@@H]1O (stereo partly drawn)
Result: 5

Query: Here is the next compound: O=C(/C=C/c1ccc(O[C@@H]2O[C@H](COC(=O)/C=C/c3ccc(O)c(O)c3)[C@@H](O)[C@H](O)[C@H]2O)c(O)c1)OC[C@H]1O[C@@H](Oc2cc(/C=C/c3ccc(O)c(O)c3)oc(=O)c2)[C@H](O)[C@@H](O)[C@@H]1O
Result: 98.8

Query: Here is the next compound: O=C(/C=C/c1ccc(O)c(O)c1)OC[C@H]1OC(O)[C@H](O)[C@@H](O)[C@@H]1O (stereo partly drawn)
Result: 9.8

====

# ASSAY_NOTES: Antioxidant activity assessed as DPPH free radical scavenging activity incubated for 30 mins by ELISA method
# Format: physicochemical
# CONDITION_SET: 0.5 h; read-out: ED50 (the source's name)
Exercise: for every item that follows, state its recorded pEC50.
pEC50 field: float, defined as -log10 of concentration (mol/L).

Query: // query pEC50 value for entry O=C(/C=C/c1ccc(O)c(O)c1)OC[C@H]1O[C@@H](Oc2cc(/C=C/C(=O)O[C@@H]3O[C@H](CO)[C@@H](O)[C@H](O)[C@H]3O)ccc2O)[C@H](O)[C@@H](O)[C@@H]1O
Result: 4.40

Query: Here is the next compound: O=C(/C=C/c1ccc(O)c(O)c1)O[C@@H]1O[C@H](CO)[C@@H](O)[C@H](O)[C@H]1O
Result: 4.54

Query: Here is the next compound: Cc1c(C)c2c(c(C)c1O)CCC(C)(CCCC(C)CCCC(C)CCCC(C)C)O2 (racemic) [alpha-TOCHOPHEROL]
Result: 4.56

====

# ASSAY_NOTES: Antioxidant activity assessed as DPPH free radical scavenging activity at 100 ug/ml incubated for 30 mins by ELISA method
# Type: physicochemical
# CONDITION_SET: 0.5 h
Exercise: for every item that follows, state its recorded Activity.
Report the value in % with no unit label.

Query: // query Activity value for entry O=C(O)/C=C/c1ccc(O[C@@H]2O[C@H](CO)[C@@H](O)[C@H](O)[C@H]2O)c(O)c1
Result: 91.2

Query: Here is the next molecule: O=C(/C=C/c1ccc(O)cc1)OC[C@H]1O[C@@H](Oc2cc(/C=C/C(=O)O[C@@H]3O[C@H](CO)[C@@H](O)[C@H](O)[C@H]3O)ccc2O)[C@H](O)[C@@H](O)[C@@H]1O
Result: 32.2

Query: Here is the next molecule: O=C(/C=C/c1ccc(O)c(O)c1)OC[C@H]1O[C@@H](Oc2ccc(/C=C/C(=O)O[C@@H]3O[C@H](CO)[C@@H](O)[C@H](O)[C@H]3O)cc2)[C@H](O)[C@@H](O)[C@@H]1O
Result: 99.7

Query: Here is the next molecule: O=C(/C=C/c1ccc(O)c(O)c1)O[C@@H]1O[C@H](CO)[C@@H](O)[C@H](O)[C@H]1O
Result: 99.3

Query: Here is the next molecule: O=C(/C=C/c1ccc(O)c(O)c1)OC[C@H]1O[C@@H](Oc2cc(/C=C/c3ccc(O)c(O)c3)oc(=O)c2)[C@H](O)[C@@H](O)[C@@H]1O
Result: 99

Query: Here is the next molecule: O=C(/C=C/c1ccc(O)c(O)c1)OC[C@H]1O[C@@H](Oc2ccc(/C=C/C(=O)O[C@@H]3O[C@H](CO)[C@@H](O)[C@H](O)[C@H]3O)cc2O)[C@H](O)[C@@H](O)[C@@H]1O
Result: 99.8
